Target: human TLR7 (Homo sapiens (Human), UniProt Q9NYK1)
Sequence (Q9NYK1 27-1049): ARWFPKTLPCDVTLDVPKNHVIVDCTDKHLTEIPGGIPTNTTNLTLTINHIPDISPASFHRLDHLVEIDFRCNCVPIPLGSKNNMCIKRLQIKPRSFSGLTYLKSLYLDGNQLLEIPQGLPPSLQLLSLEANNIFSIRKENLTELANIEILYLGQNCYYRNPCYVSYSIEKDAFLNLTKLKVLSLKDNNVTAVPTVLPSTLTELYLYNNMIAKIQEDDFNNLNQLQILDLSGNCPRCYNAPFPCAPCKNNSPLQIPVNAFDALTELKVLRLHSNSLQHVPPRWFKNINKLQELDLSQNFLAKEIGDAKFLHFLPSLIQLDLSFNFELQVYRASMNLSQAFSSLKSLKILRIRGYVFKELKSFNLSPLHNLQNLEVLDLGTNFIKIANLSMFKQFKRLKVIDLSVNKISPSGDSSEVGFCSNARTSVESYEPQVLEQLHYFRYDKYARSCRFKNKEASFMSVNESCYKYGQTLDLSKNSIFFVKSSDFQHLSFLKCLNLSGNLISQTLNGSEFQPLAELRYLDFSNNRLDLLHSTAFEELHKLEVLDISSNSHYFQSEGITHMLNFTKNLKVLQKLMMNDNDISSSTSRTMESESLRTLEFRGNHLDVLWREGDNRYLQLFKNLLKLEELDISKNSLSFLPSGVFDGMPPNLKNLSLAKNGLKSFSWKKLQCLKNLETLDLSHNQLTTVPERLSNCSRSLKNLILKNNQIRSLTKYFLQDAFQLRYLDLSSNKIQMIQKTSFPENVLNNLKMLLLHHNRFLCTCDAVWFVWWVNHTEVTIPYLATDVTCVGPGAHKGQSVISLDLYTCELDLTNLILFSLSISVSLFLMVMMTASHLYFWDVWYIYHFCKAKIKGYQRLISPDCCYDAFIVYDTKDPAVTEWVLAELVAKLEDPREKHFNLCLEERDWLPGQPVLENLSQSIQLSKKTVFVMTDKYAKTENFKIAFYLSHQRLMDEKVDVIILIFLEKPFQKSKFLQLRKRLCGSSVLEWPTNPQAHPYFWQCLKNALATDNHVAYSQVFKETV
Test: TLR7 inhibition reporter assay (HEK-Blue SEAP)
Format: cell-based
Settings: HEK-Blue human TLR7 cells, gardiquimod 7.5 μM
reported property: IC50 (nM)
Give the number; nM is assumed, so skip it.

# entry smiles, reported property, data value
data = [
    ("Cc1c(-c2[nH]c3ccc(N4C[C@@H](C)N(C(=O)CN5CC6(COC6)C5)[C@H](C)C4)nc3c2C(C)C)cn2ncnc2c1C", "IC50", 2.6),
    ("Cc1c(-c2[nH]c3ccc(N4CC5(CN(CC(C)C)C5)C4)nc3c2C(C)C)cn2ncnc2c1C", "IC50", 4.5),
]

Recorded IC50 of Cc1c(-c2[nH]c3ccc(N4CCN(C(=O)CN(C(C)C)C(C)C)C[C@@H]4C)nc3c2C(C)C)cn2ncnc2c1C , please.
3

Recorded IC50 of Cc1c(-c2[nH]c3ccc(N4C5CNCC4C5)nc3c2C(C)C)cn2ncnc2c1C , please.
11

* * *

# IC50 annotations
Biological target: human TLR9 (Homo sapiens (Human), UniProt Q9NR96)
Sequence (Q9NR96 26-1032): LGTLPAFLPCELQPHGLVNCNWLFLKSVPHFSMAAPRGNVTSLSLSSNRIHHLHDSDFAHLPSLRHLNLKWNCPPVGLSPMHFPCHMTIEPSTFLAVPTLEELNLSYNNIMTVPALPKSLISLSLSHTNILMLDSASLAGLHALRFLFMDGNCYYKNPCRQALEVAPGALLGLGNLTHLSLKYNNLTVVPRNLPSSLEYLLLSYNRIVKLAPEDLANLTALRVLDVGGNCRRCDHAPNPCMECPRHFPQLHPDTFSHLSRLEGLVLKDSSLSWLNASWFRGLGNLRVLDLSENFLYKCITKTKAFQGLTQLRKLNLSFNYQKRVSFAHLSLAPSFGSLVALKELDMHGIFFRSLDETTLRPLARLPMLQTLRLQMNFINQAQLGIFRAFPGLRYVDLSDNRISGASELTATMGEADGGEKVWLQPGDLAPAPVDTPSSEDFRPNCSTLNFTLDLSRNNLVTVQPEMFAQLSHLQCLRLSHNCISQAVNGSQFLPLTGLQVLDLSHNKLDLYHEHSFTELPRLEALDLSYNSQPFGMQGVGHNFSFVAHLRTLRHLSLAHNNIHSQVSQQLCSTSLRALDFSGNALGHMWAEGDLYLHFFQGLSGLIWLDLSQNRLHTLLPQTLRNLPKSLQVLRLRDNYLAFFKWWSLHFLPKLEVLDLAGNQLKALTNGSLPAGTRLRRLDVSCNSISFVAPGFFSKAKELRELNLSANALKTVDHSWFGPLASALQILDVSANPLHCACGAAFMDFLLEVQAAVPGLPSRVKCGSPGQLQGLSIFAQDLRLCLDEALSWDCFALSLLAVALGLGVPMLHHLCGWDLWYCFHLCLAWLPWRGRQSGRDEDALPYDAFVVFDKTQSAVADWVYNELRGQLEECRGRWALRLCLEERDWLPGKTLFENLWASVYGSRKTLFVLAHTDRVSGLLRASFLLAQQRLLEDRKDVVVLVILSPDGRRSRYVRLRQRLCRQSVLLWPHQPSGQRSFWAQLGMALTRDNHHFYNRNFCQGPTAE
Experiment: TLR9 inhibition reporter assay (HEK-Blue SEAP);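 further: SEAP driven by an IFN-β minimal promoter with NF-κB and AP-1 sites, read after 22 h, compounds dosed 0.05 nM–50 µM, inhibition scaled between agonist plus DMSO and reference-inhibitor wells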
Details: read-out: TLR9 IC50; HEK-Blue cells overexpressing human TLR9, ODN2006 5 nM stimulation, SEAP reporter
Give the number; µM is assumed, so skip it.

# compound, IC50 (µM)
measured = [
    ("COc1cc(-c2[nH]c3ccc(C4CCC(N(C)Cc5ncccn5)CC4)nc3c2C(C)C)cn2ncnc12 (stereo not shown) [Example 209]", 0.641),
]

Recorded IC50 of COc1cc(-c2[nH]c3cc(C)c(C4CCC(NCC5(C)COC5)CC4)nc3c2C(C)C)cn2ncnc12 (stereo not shown) [Example 315] , please.
5.22

Recorded IC50 of CNC1CN(c2ccc3[nH]c(-c4cc(OC)c5ncnn5c4)c(C(C)C)c3n2)C1 , please.
6.06

* * *

Target: human TLR7 (Homo sapiens (Human), UniProt Q9NYK1)
Experiment: TLR7 inhibition reporter assay (HEK-Blue SEAP)
Type: cell-based
Details: HEK-Blue cells overexpressing human TLR7, gardiquimod 7.5 μM stimulation, SEAP reporter
# pIC50 annotations
Reminder that pIC50 is minus the log10 of a molar concentration.

Solved cases below.
# compound, pIC50
data = [
    ("Cc1c(-c2[nH]c3ccc(C4CCC(NC5COC5)CC4)nc3c2C(C)C)cn2cnnc2c1C (stereo not drawn) [Example 233]", 7.96),
    ("COc1cc(-c2[nH]c3ccc(N4CC(NCC(=O)N(C)C)C4)nc3c2C(C)C)cn2ncnc12 [Example 18]", 7.85),
]

Recorded pIC50 of Cc1c(-c2[nH]c3ccc(N4CCN(C(=O)CN5CCOCC5)CC4)nc3c2C(C)C)cn2ncnc2c1C [Example 143] , please.
8.11

* * *

Molecular target: human TLR7 (Homo sapiens (Human), UniProt Q9NYK1)
Experiment: TLR7 inhibition reporter assay (HEK-Blue SEAP)
Type: cell-based
Settings: HEK-Blue human TLR7 cells, gardiquimod 7.5 μM
# pIC50 annotations
Reminder that pIC50 is minus the log10 of a molar concentration.

Solved cases below.
# molecule, reported property, data value
rows = [
    ("Cc1c(-c2[nH]c3ccc(N4CCN(C(=O)CN5CCC(F)(F)C5)CC4)nc3c2C(C)C)cn2ncnc2c1C [Example 919]", "pIC50", 7.64),
    ("Cc1c(-c2[nH]c3ccc(N4CCN(C(=O)CN5CC6(COC6)C5)C[C@@H]4C)nc3c2C(C)C)cn2ncnc2c1C [Example 901]", "pIC50", 9.14),
    ("Cc1c(-c2[nH]c3ccc(N4CCN(C(=O)CN(C)C(C)C)C[C@H]4C)nc3c2C(C)C)cn2ncnc2c1C [Example 933]", "pIC50", 9.20),
    ("Cc1c(-c2[nH]c3ccc(N4[C@@H]5CC[C@H]4CN(C(=O)CN(C)C(C)(C)C)C5)nc3c2C(C)C)cn2ncnc2c1C [Example 924]", "pIC50", 8.77),
    ("Cc1c(-c2[nH]c3ccc(N4C[C@@H](C)N(CC(N)=O)C[C@H]4C)nc3c2C(C)C)cn2ncnc2c1C [Example 800]", "pIC50", 7.70),
    ("[2H]C([2H])(C(=O)N1CCN(c2ccc3[nH]c(-c4cn5ncnc5c(C)c4C)c(C(C)C)c3n2)CC1)N(C)C (single isomer, unassigned) [Example 889]", "pIC50", 8.82),
    ("Cc1c(-c2[nH]c3ccc(N4C[C@H]5CCC[C@H](C4)N5)nc3c2C(C)C)cn2ncnc2c1C [Example 974]", "pIC50", 8.96),
    ("Cc1c(-c2[nH]c3ccc(N4CCN(C(=O)CCN(C)C)C[C@@H]4C)nc3c2C(C)C)cn2ncnc2c1C [Example 811]", "pIC50", 9.44),
    ("Cc1c(-c2[nH]c3ccc(N4CCN(C(=O)CNC5CC5)C[C@H]4C)nc3c2C(C)C)cn2ncnc2c1C [Example 836]", "pIC50", 8.62),
    ("Cc1c(-c2[nH]c3ccc(N4C[C@@H](C)N(C(=O)CN(C)C(C)(C)C)C[C@@H]4C)nc3c2C(C)C)cn2ncnc2c1C [Example 911]", "pIC50", 9.17),
]

What reported pIC50 corresponds to Cc1c(-c2[nH]c3ccc(N4CCN(CC(N)=O)C[C@@H]4C)nc3c2C(C)C)cn2ncnc2c1C [Example 809] on human TLR7 (Homo sapiens (Human), UniProt Q9NYK1)?
8.66

* * *

Target: human TLR7 (Homo sapiens (Human), UniProt Q9NYK1)
Test: TLR7 inhibition reporter assay (HEK-Blue SEAP)
Format: cell-based
Details: HEK-Blue human TLR7 cells, gardiquimod 7.5 μM
reported property: pIC50
Reminder that pIC50 is minus the log10 of a molar concentration.

# compound, tgt, pIC50
records = [
    ("Cc1c(-c2[nH]c3ccc(N4C[C@@H](C)N(C(=O)CCN(C)C)C[C@@H]4C)nc3c2C(C)C)cn2ncnc2c1C", "human TLR7 (Homo sapiens (Human), UniProt Q9NYK1)", 9.28),
    ("Cc1c(-c2[nH]c3ccc(C4CCC(N5CCC5)CC4)nc3c2C(C)C)cn2ncnc2c1C (stereo not drawn)", "human TLR7 (Homo sapiens (Human), UniProt Q9NYK1)", 9.39),
]

The record that follows has no pIC50 shown yet.
What reported pIC50 corresponds to [2H]C([2H])([2H])N(C([2H])([2H])[2H])C([2H])([2H])C(=O)N1C([2H])([2H])C([2H])([2H])N(c2ccc3[nH]c(-c4cn5ncnc5c(C)c4C)c(C(C)C)c3n2)C([2H])([2H])C1([2H])[2H] (single isomer, unassigned) on human TLR7 (Homo sapiens (Human), UniProt Q9NYK1)?
9.19

* * *

Molecular target: UniProt Q9NR96
Test: TLR9 inhibition reporter assay (HEK-Blue SEAP)
Conditions: read-out: TLR9 IC50; HEK-Blue human TLR9 cells, ODN2006 5 nM
reported property: IC50 (µM)
Give the number; µM is assumed, so skip it.

Solved cases below.
# compound, reported property, data value
records = [
    ("Cc1c(-c2[nH]c3ccc(N4CCN(C(=O)CN5CC6(COC6)C5)CC4)nc3c2C(C)C)cn2ncnc2c1C", "IC50", 22.4),
    ("Cc1c(-c2[nH]c3ccc(N4C[C@@H](C)N(C(C)C)C[C@@H]4C)nc3c2C(C)C)cn2ncnc2c1C", "IC50", 8.82),
    ("Cc1c(-c2[nH]c3ccc(N4C[C@H](C)N(C(C)C)C[C@H]4C)nc3c2C(C)C)cn2ncnc2c1C", "IC50", 14.3),
    ("Cc1c(-c2[nH]c3ccc(N4CCN[C@H](CO)C4)nc3c2C(C)C)cn2ncnc2c1C [Example 987]", "IC50", 11.3),
    ("Cc1c(-c2[nH]c3ccc(C4CC5(C4)CN(CC4(C)COC4)C5)nc3c2C(C)C)cn2ncnc2c1C", "IC50", 5.86),
]

The record that follows has no IC50 shown yet.
Recorded IC50 of CCN(C)CC(=O)N1CCN(c2ccc3[nH]c(-c4cn5ncnc5c(C)c4C)c(C(C)C)c3n2)[C@@H](C)C1 , please.
14.3

* * *

# IC50 annotations
Target: human TLR8 (Homo sapiens (Human), UniProt Q9NR97)
Sequence (Q9NR97 27-1041): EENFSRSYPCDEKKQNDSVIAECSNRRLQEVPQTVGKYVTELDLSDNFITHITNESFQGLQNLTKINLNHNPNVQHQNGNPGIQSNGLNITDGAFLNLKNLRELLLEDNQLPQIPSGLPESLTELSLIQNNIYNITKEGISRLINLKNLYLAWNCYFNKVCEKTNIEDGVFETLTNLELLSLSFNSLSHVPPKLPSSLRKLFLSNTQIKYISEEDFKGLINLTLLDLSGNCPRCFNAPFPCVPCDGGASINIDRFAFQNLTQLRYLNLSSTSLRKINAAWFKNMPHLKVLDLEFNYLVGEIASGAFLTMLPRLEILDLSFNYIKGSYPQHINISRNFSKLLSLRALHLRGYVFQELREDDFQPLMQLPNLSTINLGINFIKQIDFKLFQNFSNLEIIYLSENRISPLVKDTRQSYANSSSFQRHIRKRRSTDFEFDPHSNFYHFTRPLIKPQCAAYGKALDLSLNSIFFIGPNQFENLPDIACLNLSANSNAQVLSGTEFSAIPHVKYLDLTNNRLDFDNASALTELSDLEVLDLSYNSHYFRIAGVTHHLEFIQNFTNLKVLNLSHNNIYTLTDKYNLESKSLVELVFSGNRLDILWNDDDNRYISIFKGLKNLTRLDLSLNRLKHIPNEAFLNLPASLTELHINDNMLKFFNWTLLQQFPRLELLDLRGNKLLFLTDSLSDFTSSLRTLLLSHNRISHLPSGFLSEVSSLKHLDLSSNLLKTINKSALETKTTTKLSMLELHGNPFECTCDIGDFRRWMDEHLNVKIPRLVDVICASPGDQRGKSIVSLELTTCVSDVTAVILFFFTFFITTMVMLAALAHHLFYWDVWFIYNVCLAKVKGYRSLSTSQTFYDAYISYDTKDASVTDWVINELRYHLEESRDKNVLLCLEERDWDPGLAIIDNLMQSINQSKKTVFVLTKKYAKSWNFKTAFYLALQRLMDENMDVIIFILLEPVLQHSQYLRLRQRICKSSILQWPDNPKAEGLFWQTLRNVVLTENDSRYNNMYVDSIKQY
Test: TLR8 inhibition reporter assay (HEK-Blue SEAP)
Details: read-out: TLR8 IC50; HEK-Blue cells overexpressing human TLR8, SEAP reporter, R848 15.9 μM
Give the number; nM is assumed, so skip it.

# compound, reported property, unit string, data value
measured = [
    ("Cc1c(-c2[nH]c3ccc(C4CCC(N(C)CCS(C)(=O)=O)CC4)nc3c2C(C)C)cn2ncnc2c1C (centres unmarked) [Example 427]", "IC50", "nM", 7.6),
    ("COc1ncc(CN(C)C2CCC(c3ccc4[nH]c(-c5cn6ncnc6c(C)c5C)c(C(C)C)c4n3)CC2)cn1 (centres unmarked) [Example 405]", "IC50", "nM", 2.5),
    ("Cc1cc(-c2[nH]c3ccc(CCN4CCCCC4)nc3c2C(C)C)cn2ncnc12", "IC50", "nM", 199),
    ("Cc1c(-c2[nH]c3ccc(C4CCC(N(CCC#N)C5CC5)CC4)nc3c2C(C)C)cn2ncnc2c1C (centres unmarked) [Example 433]", "IC50", "nM", 60),
    ("Cc1cc(-c2[nH]c3ccc(C4CCN(C5COC5)CC4)nc3c2C(C)C)cn2ncnc12", "IC50", "nM", 8),
    ("CNC(=O)CN1CCC(c2ccc3[nH]c(-c4cn(C)c(=O)c(Cl)c4C)c(C(C)C)c3n2)CC1", "IC50", "nM", 6.9),
    ("Cc1cc(-c2[nH]c3ccc(C4CCN(C5COC5)CC4)nc3c2C(C)C)cn(C)c1=O", "IC50", "nM", 23),
    ("Cc1c(-c2[nH]c3ccc(C4CCC(NC(C)(C)C(=O)N(C)C)CC4)nc3c2C(C)C)cn2ncnc2c1C (centres unmarked)", "IC50", "nM", 1.3),
    ("COCCN(C)C(=O)CNC1CCC(c2ccc3[nH]c(-c4cn5ncnc5c(C)c4C)c(C(C)C)c3n2)CC1 (centres unmarked)", "IC50", "nM", 8.4),
    ("COc1cc(-c2[nH]c3ccc(C4CCC(NC5CCOCC5)C4)nc3c2C(C)C)cn2ncnc12 (centres unmarked) [Example 710]", "IC50", "nM", 3.2),
]

Recorded IC50 of Cc1c(-c2[nH]c3ccc(C4CCC(NC5(CO)COC5)CC4)nc3c2C(C)C)cn2ncnc2c1C (centres unmarked) [Example 483] , please.
1.2

Recorded IC50 of Cc1c(-c2[nH]c3ccc(C4CCC(N5CC(C#N)C5)CC4)nc3c2C(C)C)cn2ncnc2c1C (centres unmarked) [Example 434] , please.
2.4

Recorded IC50 of COc1cc(-c2[nH]c3ccc(C4CCC(NCC5(C)COC5)C4)nc3c2C(C)C)cn2ncnc12 (centres unmarked) [Example 728] , please.
0.67

Recorded IC50 of Cc1c(-c2[nH]c3ccc(C4CCC(NC5(C)COC5)CC4)nc3c2C(C)C)cn2ncnc2c1C (centres unmarked) [Example 472] , please.
1.1

Recorded IC50 of COc1cc(-c2[nH]c3ccc(C4CN(C(=O)CCN(C)C)CCO4)nc3c2C(C)C)cn2ncnc12 (centres unmarked) , please.
90

Recorded IC50 of CCN(CCS(C)(=O)=O)C1CCC(c2nc3c(C(C)C)c(-c4cn5ncnc5c(C)c4C)[nH]c3cc2F)CC1 (centres unmarked) [Example 510] , please.
28

Recorded IC50 of COc1cc(-c2[nH]c3cc(C)c(C4CCN(C5COC5)CC4)nc3c2C(C)C)cn2ncnc12 , please.
79
